Sourced from patent US10377709B2

# Tested on: HBV
# method.summary: Anti-HBV activity in HepG2.117 inducible HBV producing cell line (intracellular HBV DNA, realtime PCR)
# Assay type: cell-based, Hepatitis B virus
# condition.set: Hepatitis B virus, HepG2.117, 72 h, HepG2.117 cells (Tet-off); 3 days of treatment; intracellular HBV DNA by realtime PCR
pEC50: −log10 of the molar value.
Quick rule for you: pEC50 at 7 or higher means satisfied, lower means not satisfied.

[
  {
    "compound": "CC1(NC(=O)C(=O)N2CC[C@H](C(=O)Nc3cc(F)c(F)c(Br)c3)C2)COC1",
    "cat": "satisfied"
  },
  {
    "compound": "C[C@@H](NC(=O)C(=O)N1CC[C@H](C(=O)Nc2ccc(F)c(Cl)c2)C1)C(F)(F)F",
    "cat": "satisfied"
  },
  {
    "compound": "CC(C)(C)NC(=O)C(=O)N1CC[C@H](C(=O)Nc2ccc(F)c(Cl)c2F)C1",
    "cat": "not satisfied"
  },
  {
    "compound": "C[C@@H](NC(=O)C(=O)N1CC[C@H](C(=O)Nc2cc(F)c(F)c(F)c2)C1)C(F)(F)F",
    "cat": "satisfied"
  },
  {
    "compound": "C[C@H]1[C@@H](C(=O)Nc2cc(F)c(F)c(Cl)c2)CCN1C(=O)C(=O)N[C@H](C)C(F)(F)F [Compound 33b]",
    "cat": "satisfied"
  },
  {
    "compound": "C[C@H]1[C@@H](C(=O)Nc2cc(F)c(F)c(F)c2)CCN1C(=O)C(=O)N[C@H](C)C(F)(F)F [Compound 34b]",
    "cat": "satisfied"
  },
  {
    "compound": "CC[C@@H](C)NC(=O)C(=O)N1CC[C@H](C(=O)Nc2ccc(F)c(C(F)(F)F)c2)C1",
    "cat": "not satisfied"
  },
  {
    "compound": "C[C@H]1[C@H](C(=O)Nc2cc(F)c(F)c(Cl)c2)CCN1C(=O)C(=O)N[C@H](C)C(F)(F)F [Compound 33a]",
    "cat": "not satisfied"
  },
  {
    "compound": "C[C@@H](NC(=O)C(=O)N1CC[C@H](C(=O)Nc2cc(F)c(F)c(Br)c2)C1)C(F)(F)F",
    "cat": "satisfied"
  },
  {
    "compound": "CC(C)NC(=O)C(=O)N1CC[C@H](C(=O)Nc2ccc(F)c(C(F)(F)F)c2)C1",
    "cat": "not satisfied"
  },
  {
    "compound": "CC(C)NC(=O)C(=O)N1CCC(C(=O)Nc2cc(F)c(F)c(Cl)c2)[C@@H]1C (stereo partly shown)",
    "cat": "satisfied"
  },
  {
    "compound": "C[C@H]1[C@H](C(=O)Nc2cc(F)c(F)c(F)c2)CCN1C(=O)C(=O)N[C@H](C)C(F)(F)F [Compound 34a]",
    "cat": "not satisfied"
  }
]
